- Tested on: AncSZ
- run description: phosphorylation enrichment, bacterial display (enrichment ratio); higher = better substrate or ligand; peptides without Tyr show the background
readout name: phosphorylation enrichment
Note: the reply should be a number with no unit written.

Per the reported AncSZ data, YSKTQYNQVPS [CXADR_Y318] has phosphorylation enrichment of 0.473

Per the reported AncSZ data, ISDDNYGRIRL [ARCN1_Y310_K309N] has phosphorylation enrichment of 0.554

----------
- target of assay: Hck (UniProt P08631)
- Sequence (P08631 whole entry, looked up): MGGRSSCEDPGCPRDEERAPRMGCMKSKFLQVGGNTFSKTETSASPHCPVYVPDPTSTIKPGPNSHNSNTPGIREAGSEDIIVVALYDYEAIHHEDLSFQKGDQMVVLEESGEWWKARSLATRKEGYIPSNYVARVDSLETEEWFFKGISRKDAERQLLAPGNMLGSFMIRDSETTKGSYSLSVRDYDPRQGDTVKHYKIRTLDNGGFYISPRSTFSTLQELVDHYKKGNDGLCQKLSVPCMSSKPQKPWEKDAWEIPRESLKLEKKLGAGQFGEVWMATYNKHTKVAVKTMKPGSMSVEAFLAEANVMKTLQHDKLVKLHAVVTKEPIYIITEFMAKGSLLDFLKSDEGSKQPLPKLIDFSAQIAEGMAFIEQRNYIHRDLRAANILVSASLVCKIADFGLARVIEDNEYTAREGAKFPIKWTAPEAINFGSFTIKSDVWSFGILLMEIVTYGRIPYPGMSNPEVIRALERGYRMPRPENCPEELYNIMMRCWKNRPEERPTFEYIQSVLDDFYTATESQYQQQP
- run description: phosphorylation enrichment, bacterial display (enrichment ratio); higher = better substrate or ligand; peptides without Tyr show the background
readout name: phosphorylation enrichment
Note: the reply should be a number with no unit written.

Recorded results for 6 sequences are shown here.
sequence content: DQNVEYKGTVS [FHL1_Y117_W122S]
phosphorylation enrichment: 0.495
//
sequence content: EPGNLYIAKVE [CNTN4_Y180_T176P]
phosphorylation enrichment: 0.502
//
sequence content: MIRSTYALGGL [CPS1_Y590_A589T]
phosphorylation enrichment: 0.487
//
sequence content: TEDELYQLFLQ [RASGRP2_Y378_S381F]
phosphorylation enrichment: 3.67
//
sequence content: EFEGLYQEGGG [TMEM159_Y159]
phosphorylation enrichment: 0.842
//
sequence content: IGKDLYANNVL [ACTA2_Y296_R292G]
phosphorylation enrichment: 0.775

Just so you know, measured phosphorylation enrichment for CERLPYDANKW [FLT1_Y815_S818N] came out at 0.43

Just so you know, measured phosphorylation enrichment for EAIMTYVSSFY [ACTN4_Y260_K255E] came out at 0.631

Just so you know, measured phosphorylation enrichment for VCDSNYSASRW [LRP5_Y1552_D1551N] came out at 0.508

Just so you know, measured phosphorylation enrichment for TVLEPYTDPYY [ZC3H18_Y367_A368T] came out at 0.649

Just so you know, measured phosphorylation enrichment for RHLLRYLSWTV [CLCNKB_Y93_S88R] came out at 0.614

Just so you know, measured phosphorylation enrichment for PRDSGYSFETI [MAP1B_Y1921_S1917R_YF] came out at 0.823

Just so you know, measured phosphorylation enrichment for LQRCKYSHMEP [TEX45_Y434] came out at 0.672

Just so you know, measured phosphorylation enrichment for ANFTEYVATSW [CDKL5_Y171_R175S_YF] came out at 0.511

Just so you know, measured phosphorylation enrichment for IFRASYFRKGG [ALK_Y1282_YF] came out at 0.674

Just so you know, measured phosphorylation enrichment for HFMKLYEEKTG [PARP1_Y618] came out at 0.519

----------
- target of assay: FGFR3 (UniProt P22607)
- Sequence (P22607 whole entry, looked up): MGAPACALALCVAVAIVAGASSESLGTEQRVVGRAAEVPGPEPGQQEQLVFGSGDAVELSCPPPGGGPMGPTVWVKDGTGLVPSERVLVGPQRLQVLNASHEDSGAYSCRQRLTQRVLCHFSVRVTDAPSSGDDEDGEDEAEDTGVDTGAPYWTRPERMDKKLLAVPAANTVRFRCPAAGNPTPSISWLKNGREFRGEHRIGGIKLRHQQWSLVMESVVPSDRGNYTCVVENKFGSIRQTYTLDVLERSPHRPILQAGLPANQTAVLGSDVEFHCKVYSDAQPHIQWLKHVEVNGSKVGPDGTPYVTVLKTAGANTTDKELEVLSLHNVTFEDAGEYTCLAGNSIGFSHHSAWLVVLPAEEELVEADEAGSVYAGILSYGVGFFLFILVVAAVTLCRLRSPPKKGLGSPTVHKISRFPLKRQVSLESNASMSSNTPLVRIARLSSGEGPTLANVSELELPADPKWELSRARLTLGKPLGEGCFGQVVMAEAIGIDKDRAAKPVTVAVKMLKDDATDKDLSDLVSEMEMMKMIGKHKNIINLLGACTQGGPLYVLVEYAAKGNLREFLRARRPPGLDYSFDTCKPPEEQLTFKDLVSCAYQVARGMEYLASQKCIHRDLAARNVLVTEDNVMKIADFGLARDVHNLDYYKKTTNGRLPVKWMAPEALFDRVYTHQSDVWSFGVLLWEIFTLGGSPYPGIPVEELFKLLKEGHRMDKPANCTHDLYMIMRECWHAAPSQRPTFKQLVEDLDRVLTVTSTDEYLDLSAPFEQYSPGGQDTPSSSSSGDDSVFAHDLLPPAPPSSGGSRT
- run description: phosphorylation enrichment, bacterial display (enrichment ratio); higher = better substrate or ligand; peptides without Tyr show the background
readout name: phosphorylation enrichment
Note: the reply should be a number with no unit written.

Recorded results for 2 sequences are shown here.
sequence content: QQLVAYYSKHA [SRC_Y232]
phosphorylation enrichment: 1.14
--
sequence content: IFRASYFRKGG [ALK_Y1282_YF]
phosphorylation enrichment: 0.625

Just so you know, measured phosphorylation enrichment for ANFAKYGNPNE [BCHE_Y505] came out at 0.426

----------
- target of assay: Hck (UniProt P08631)
- run description: phosphorylation enrichment, bacterial display (enrichment ratio); higher = better substrate or ligand; peptides without Tyr show the background
readout name: phosphorylation enrichment
Note: the reply should be a number with no unit written.

Recorded results for 2 sequences are shown here.
sequence content: HRAVEYLLTGI [RAD23A_Y197]
phosphorylation enrichment: 0.7
--
sequence content: EALDFYGEVRI [PTEN_Y155_T160I]
phosphorylation enrichment: 1.13

Per the reported Hck (UniProt P08631) data, CCNHPYLINGA [CHD7_Y1256] has phosphorylation enrichment of 0.519

Per the reported Hck (UniProt P08631) data, NGSKAYAFVHF [PABPC5_Y147_G146A_YF] has phosphorylation enrichment of 0.531

Per the reported Hck (UniProt P08631) data, GTATTYLCGVK [ALPL_Y117_A116T] has phosphorylation enrichment of 0.582

----------
Reported phosphorylation enrichment values for the following sequences.
- target of assay: Jak2 (UniProt O60674)
- Sequence (O60674 whole entry, looked up): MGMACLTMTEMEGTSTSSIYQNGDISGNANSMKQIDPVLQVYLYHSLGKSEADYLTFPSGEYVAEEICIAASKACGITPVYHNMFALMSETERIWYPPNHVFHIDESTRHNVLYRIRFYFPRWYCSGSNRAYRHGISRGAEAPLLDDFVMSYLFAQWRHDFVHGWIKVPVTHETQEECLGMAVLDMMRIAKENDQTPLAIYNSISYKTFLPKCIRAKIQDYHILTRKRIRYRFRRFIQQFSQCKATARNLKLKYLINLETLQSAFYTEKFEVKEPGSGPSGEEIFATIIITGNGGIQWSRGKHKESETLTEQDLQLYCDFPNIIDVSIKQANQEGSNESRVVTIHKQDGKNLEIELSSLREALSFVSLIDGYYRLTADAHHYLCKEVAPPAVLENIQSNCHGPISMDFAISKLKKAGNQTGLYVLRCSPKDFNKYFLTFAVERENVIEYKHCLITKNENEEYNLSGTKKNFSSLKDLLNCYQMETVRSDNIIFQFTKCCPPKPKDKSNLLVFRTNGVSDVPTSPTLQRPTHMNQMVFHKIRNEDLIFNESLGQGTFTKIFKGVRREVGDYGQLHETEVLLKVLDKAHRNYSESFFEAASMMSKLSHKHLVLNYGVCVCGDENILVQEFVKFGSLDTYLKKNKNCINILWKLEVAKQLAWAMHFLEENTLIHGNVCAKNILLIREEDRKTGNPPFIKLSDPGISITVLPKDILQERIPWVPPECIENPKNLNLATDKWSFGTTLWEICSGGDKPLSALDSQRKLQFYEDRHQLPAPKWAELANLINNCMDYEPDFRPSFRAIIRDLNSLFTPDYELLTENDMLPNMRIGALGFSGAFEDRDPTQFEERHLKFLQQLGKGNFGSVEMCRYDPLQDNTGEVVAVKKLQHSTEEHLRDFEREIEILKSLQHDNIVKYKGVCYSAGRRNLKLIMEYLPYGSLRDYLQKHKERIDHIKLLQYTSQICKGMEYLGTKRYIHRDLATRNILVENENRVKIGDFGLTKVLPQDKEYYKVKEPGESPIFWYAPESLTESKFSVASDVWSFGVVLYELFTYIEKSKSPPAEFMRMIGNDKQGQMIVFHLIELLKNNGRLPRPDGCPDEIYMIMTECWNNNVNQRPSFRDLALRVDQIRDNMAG
- run description: phosphorylation enrichment, bacterial display (enrichment ratio); higher = better substrate or ligand; peptides without Tyr show the background

Recorded results for 2 sequences are shown here.
sequence content: MMVGAYSSLEG [ECPAS_Y470_T472S]
phosphorylation enrichment: 0.563
--
sequence content: VAVTKYCKEEL [ATP7B_Y1078]
phosphorylation enrichment: 0.844

Per the reported Jak2 (UniProt O60674) data, VRFTEYETQVK [TARDBP_Y155] has phosphorylation enrichment of 0.761

----------
- target of assay: Jak2 (UniProt O60674)
- run description: phosphorylation enrichment, bacterial display (enrichment ratio); higher = better substrate or ligand; peptides without Tyr show the background
Rule: 1.0 for phosphorylation enrichment not less than 1, 0.0 for anything less.

Worked examples follow.
sequence content: TTTQAYRVNER [PRKN_Y391_D394N]
label: 0.0
//
sequence content: EPFELYCEMGS [CBL_Y371_Q367P_YF]
label: 1.0

Could you verify whether the entry EAGKVYLKAPM [CBFB_Y96] shows phosphorylation enrichment of no less than 1? 0.0

Could you verify whether the entry VASSLYDILAR [GLB1_Y294] shows phosphorylation enrichment of no less than 1? 1.0

Could you verify whether the entry DSEIRYLSADS [TTF1_Y476] shows phosphorylation enrichment of no less than 1? 0.0

----------
- target of assay: Jak2 (UniProt O60674)
- run description: phosphorylation enrichment, bacterial display (enrichment ratio); higher = better substrate or ligand; peptides without Tyr show the background
readout name: phosphorylation enrichment

sequence content: FTRNYYVWAVL [CYBA_Y88_R90W]
target of assay: Jak2 (UniProt O60674)
test result: 1.84
//
sequence content: PELINYHQHNF [BTK_Y361_S366F]
target of assay: Jak2 (UniProt O60674)
test result: 1.02
//
sequence content: QFNPEYVQQAS [LRRC7_Y1058_H1054Y_YF]
target of assay: Jak2 (UniProt O60674)
test result: 1.3
//
sequence content: EFEGLYQEGGG [TMEM159_Y159]
target of assay: Jak2 (UniProt O60674)
test result: 0.781
//
sequence content: YLAAIYPTVGQ [NF1_Y2508_T2507I]
target of assay: Jak2 (UniProt O60674)
test result: 0.671
//
sequence content: PQIVKYRPDCI [LDHB_Y128_S129R]
target of assay: Jak2 (UniProt O60674)
test result: 0.391
//
sequence content: LGGSPYPSVPV [FGFR1_Y701_G703S]
target of assay: Jak2 (UniProt O60674)
test result: 0.645

Proceed to the following item.
Per the reported Jak2 (UniProt O60674) data, GLGGGCGGASG [KRT8_Y54_Y54C] has phosphorylation enrichment of 0.508

----------
- target of assay: c-Src SH2;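 note: peptide library displayed on the E. coli surface as eCPX fusions, selected cells deep-sequenced, score is each peptide's frequency after selection divided by its frequency in the input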
- run description: SH2 binding enrichment of the phosphorylated peptide, bacterial display (enrichment ratio); higher = better substrate or ligand; peptides without Tyr show the background
readout name: SH2 binding enrichment

Recorded results for 3 sequences are shown here.
sequence content: DGMADYSDPSF [CDC5L_Y459_YF]
SH2 binding enrichment: 0.557

sequence content: HIPFRYPKEFQ [IDS_Y234]
SH2 binding enrichment: 0.862

sequence content: QNRELYSEGLG [CNKSR1_Y665]
SH2 binding enrichment: 0.536

Proceed to the following item.
Per the reported c-Src SH2 data, SFTDPYAQPPL [KMT2D_Y2378_YF] has SH2 binding enrichment of 0.534

----------
- target of assay: Hck (UniProt P08631)
- run description: phosphorylation enrichment, bacterial display (enrichment ratio); higher = better substrate or ligand; peptides without Tyr show the background
readout name: phosphorylation enrichment
Note: the reply should be a number with no unit written.

Recorded results for 2 sequences are shown here.
sequence content: LFQAKYQIRYR [CRLF1_Y272]
phosphorylation enrichment: 0.763
//
sequence content: IRKAEYPFSSE [ATP2C1_Y452]
phosphorylation enrichment: 0.404

Proceed to the following item.
Just so you know, measured phosphorylation enrichment for SHPSSYTTHPQ [NIPBL_Y195] came out at 0.46

----------
- Tested on: c-Src
- run description: phosphorylation enrichment, bacterial display (enrichment ratio); higher = better substrate or ligand; peptides without Tyr show the background
Rule: True for phosphorylation enrichment not less than 0.6, False for anything less.

Worked examples follow.
sequence content: DALDNYVIRGV [PCCA_Y473]
label: False

sequence content: AALLNYKAGRD [GRIN2A_Y737_V734L]
label: False

Continue with the sequence presented below.
Could you verify whether the entry QRPGPYDRPGA [HNRNPH2_Y210] shows phosphorylation enrichment of no less than 0.6? False
